The measurements presented in this section are drawn from patent US10138255B2.

Entries and their EC50 values follow.
# Test system: HIV-1 (H9IIIB strain)
# test-name: Cell-Based HIV Infection Assay Using a Reporter (MT4-GFP cells)
# particulars: Human immunodeficiency virus 1, inflection point (IP) of viral growth inhibition; MT4-GFP cells infected with HIV-1 H9IIIB; 50% normal human serum; mean of at least two independent experiments; read-out: Cell Based IP (50% NHS)
Dear colleague, please return just the value in nM, with no unit written.

{"compound": "CO[C@H]1CC[C@H]([C@H](c2ccc(Cl)cc2)[C@H](N)C(=O)N[C@H]2CCCC[C@@H]2CC[C@H]2CN[C@@H]3CCCS(=O)(=O)N2C3)CC1", "result-type": "EC50", "endpoint-unit": "nM", "measured-value": 40}
{"compound": "CO[C@H]1CC[C@](c2ccc(Cl)cc2)([C@H](N)C(=O)Nc2cccc(F)c2CC[C@H]2CN[C@@H]3CCCS(=O)(=O)N2C3)CC1", "result-type": "EC50", "endpoint-unit": "nM", "measured-value": 34}

Shift focus to the following entry.
Give reported EC50 value for N[C@H](C(=O)Nc1cccc(F)c1CC[C@H]1CN[C@@H]2CCCS(=O)(=O)N1C2)[C@@H](c1ccc(F)cc1)C1CCCOC1 (stereo partly drawn)
18
